The values you see were collected from the METLIN SMRT retention time set (Domingo-Almenara et al. 2019).

Experiment: gradient 5% acetonitrile 3 min, to 50% in 2 min, to 85% in 15 min, held 3 min, 100 µL/min
Conditions: column: Zorbax Extend-C18 2.1 x 50 mm; eluents: water / acetonitrile, 0.1% formic acid
Mark true only when RP-LC retention time stays strictly below 800 s. Values equal to the cut-off are false.

Past entries and their recorded results:
compound	category
Cc1ccc2c(c1)N(Cc1ccccc1F)N=C(C(=O)N1CCCC1)S2(=O)=O	false
CCCN(Cc1ccc(Cl)cc1)Cc1cc(=O)n2ccc(C)cc2n1	true
CC1Oc2ccc(-c3csc(NC(=O)c4cccnc4)n3)cc2NC1=O (stereo not given)	true
COc1ccccc1NC(=O)[C@H]1[C@H]2C=C[C@]3(CN(Cc4cccnc4)C(=O)[C@@H]13)O2	true
CCCCc1ccc(NC(=O)Cn2cccc2-c2nc(-c3ccc4c(c3)OCO4)no2)cc1	false
OC[C@H]1O[C@@H](n2cnc3c(N[C@H]4CCC[C@@H]4O)ncnc32)[C@@H](O)C1O (stereo not given in full)	true

Dear colleague, could you confirm whether RP-LC retention time of O=C(CN1C(=O)C2CCCCN2c2ccc(S(=O)(=O)N3CCCC3)cc21)N1CCCCC1 (stereo not given) falls below 800 s? Thanks.
false

Dear colleague, could you confirm whether RP-LC retention time of `O=C1COc2ccc(S(=O)(=O)N3CCC(C(=O)Nc4ccc(F)cc4F)CC3)cc2N1` falls below 800 s? Thanks.
true

Dear colleague, could you confirm whether RP-LC retention time of `Fc1cccc(-c2cc(CN3CCN(c4ncccn4)CC3)[nH]n2)c1` falls below 800 s? Thanks.
true

Dear colleague, could you confirm whether RP-LC retention time of CCOc1ccc(N2C(=O)Nc3ccccc3C2(O)C(=O)NCCCN2CCCCC2)cc1 (stereo not given) falls below 800 s? Thanks.
true

###

Test: gradient 5% acetonitrile 3 min, to 50% in 2 min, to 85% in 15 min, held 3 min, 100 µL/min
Details: column: Zorbax Extend-C18 2.1 x 50 mm; eluents: water / acetonitrile, 0.1% formic acid
Kindly state RP-LC retention time for each of the entries shown.
Give bare numbers, in s.

Answered examples (2):
compound	unit_text	numeric_readout
O=C(c1cc(-c2ccco2)on1)N1CCC2(CC1)OCCS2	s	822
Cc1ccc(NC(=O)N2CCCC(Cn3c(C4CC4)nc4cccnc43)C2)c(C)c1 (stereo not drawn)	s	694

# context switch: different compound, same RP-LC retention time
// lookup RP-LC retention time for `CC(C)NC(=O)C1CCN(c2cnc(N3CCSCC3)nc2)CC1`
629

###

Assay: gradient 5% acetonitrile 3 min, to 50% in 2 min, to 85% in 15 min, held 3 min, 100 µL/min
Conditions: column: Zorbax Extend-C18 2.1 x 50 mm; eluents: water / acetonitrile, 0.1% formic acid
measured_property: RP-LC retention time (s)
Numbers only, in s.

Answered examples (3):
compound	numeric_readout
COCc1c(C(=O)O)nnn1-c1ccc2c(c1)OCCO2	666
Cc1cc(Cl)ccc1OCc1nc(-c2cccc(-c3ccnn3C)c2)no1	1200
CN(C)S(=O)(=O)c1ccc2c(c1)N(CC(=O)NCCc1ccco1)C(=O)C1CCCCN21 (stereo unspecified)	842

Please go through the list and note RP-LC retention time for each compound.
1. Cc1ccc(-c2nc3ccc(Cl)cn3c2Nc2ccc3c(c2)OCO3)cc1
2. Fc1ccccc1Cc1nc(-c2cccc(-c3ccn[nH]3)c2)no1
3. COCCNC(=O)C1CCN(C(=O)c2cc3oc(C)cc3n2Cc2c(F)cccc2Cl)CC1
4. C[C@@H]1CC2C3CCC4=CC(=O)C=CC4(C)[C@@]3(F)[C@@H](O)CC2(C)[C@@]1(O)C(=O)CO (stereo partly specified)
5. Cc1ccc(-c2cc(C(=O)NC3CC3)n(C)c2)cc1
6. COCCCNC(=O)C1CCN(C2=NS(=O)(=O)C(c3ccc(Cl)cc3)=C2C)CC1
7. Cc1ccc(-c2cc3c(=O)n(Cc4nc(-c5ccccn5)no4)ccn3n2)cc1C

[708, 939, 804, 737, 915, 748, 909]

// lookup RP-LC retention time for `CCCC(=O)Nc1ccc(CCc2nc3ccc(C(=O)NC4CCCC4)cc3[nH]2)cc1`
650

###

Assay: gradient 5% acetonitrile 3 min, to 50% in 2 min, to 85% in 15 min, held 3 min, 100 µL/min
Conditions: column: Zorbax Extend-C18 2.1 x 50 mm; eluents: water / acetonitrile, 0.1% formic acid
measured_property: RP-LC retention time
Provide a numeric answer, followed by its unit.

compound	RP-LC retention time
CC(C)Cc1ccc(S(=O)(=O)N2CCc3c(c(CN4CCN(C)CC4)nn3C)C2)cc1	687 s

Please go through the list and note RP-LC retention time for each compound.
1. COc1ccc(NC(=O)C2CCCN(c3cnc4nccnc4c3)C2)cc1F (stereo not given)
2. CC1=C(c2ccc(C)cc2)S(=O)(=O)N=C1N1CCCN(C(=O)CC2CCCC2)CC1
3. Cc1c(Cl)cccc1NC(=O)c1cnc(-c2ccccc2)nc1-c1ccncc1
4. Cc1ncc2c(n1)C[C@@H]1CC[C@H]2N1C(=O)Nc1ccc(F)cc1F

726 s
910 s
954 s
649 s

###

Kindly state RP-LC retention time for each of the entries shown.
Experiment: gradient 5% acetonitrile 3 min, to 50% in 2 min, to 85% in 15 min, held 3 min, 100 µL/min
Settings: column: Zorbax Extend-C18 2.1 x 50 mm; eluents: water / acetonitrile, 0.1% formic acid
Give bare numbers, in s.

Answered examples (2):
compound	measured_property	numeric_readout
CCNC(=O)C1CCCN(c2nc3ncn(CC(=O)Nc4ccc(Cl)cc4)c(=O)c3s2)C1 (stereo not drawn)	RP-LC retention time	704
COc1ccc(NC(=O)COc2ccc(-c3nnc4n3CCCC4)cc2)c(OC)c1	RP-LC retention time	684

// lookup RP-LC retention time for `COCCNC(=O)c1ccc(CNS(=O)(=O)c2cc(C)ccc2C)cc1`
703

###

Experiment: gradient 5% acetonitrile 3 min, to 50% in 2 min, to 85% in 15 min, held 3 min, 100 µL/min
Conditions: column: Zorbax Extend-C18 2.1 x 50 mm; eluents: water / acetonitrile, 0.1% formic acid
Decide using RP-LC retention time: a value greater than or equal to 700 s is Satisfied, a smaller one is Not satisfied.

Past entries and their recorded results:
compound	category
CC(C)OCCCNC(=O)C1Cn2cccc2C(=O)N1 (centres undefined)	Not satisfied
COCCC1CCN(C(=O)CC2CCN(C(C)=O)CC2)CC1	Not satisfied
CCCS(=O)(=O)N1CCC(Cc2nc(-c3cccnc3)n[nH]2)C1 (centres undefined)	Not satisfied

Kindly review the next compound as well.
RP-LC retention time >= 700 s for CCC(C)n1c(=O)c2ccccc2n(Cc2nc(-c3ccc(C(F)(F)F)cc3)no2)c1=O (centres undefined) ?
Satisfied

###

Kindly state RP-LC retention time for each of the entries shown.
Assay: gradient 5% acetonitrile 3 min, to 50% in 2 min, to 85% in 15 min, held 3 min, 100 µL/min
Conditions: column: Zorbax Extend-C18 2.1 x 50 mm; eluents: water / acetonitrile, 0.1% formic acid
Provide a numeric answer, followed by its unit.

Answered examples (2):
compound	RP-LC retention time
CC(C)(C)NC(=O)N1CC(c2nc(-c3cccnc3)no2)C2(CCOCC2)C1 (stereo not drawn)	677 s
[O-]/[N+](=C\c1ccccc1)CC1(O)CCCCC1	798 s

// lookup RP-LC retention time for COCCN1C(=O)c2ccccc2C(C(=O)NCc2ccc(OC)cc2)C12CCCC2 (stereo not drawn)
785 s

###

Experiment: gradient 5% acetonitrile 3 min, to 50% in 2 min, to 85% in 15 min, held 3 min, 100 µL/min
Conditions: column: Zorbax Extend-C18 2.1 x 50 mm; eluents: water / acetonitrile, 0.1% formic acid
Kindly state RP-LC retention time for each of the entries shown.
Give bare numbers, in s.

Answered examples (4):
molecule	RP-LC retention time / s
Cc1cccc(OCc2nc(C)c(C(=O)Nc3nc(-c4ccc(Cl)cc4)cs3)s2)c1	1360
COc1ccc2c(c1)C1(CCN(S(=O)(=O)c3ccc4c(c3)CC(=O)N4C)C1)C(=O)N2C (stereo not given)	744
O=[N+]([O-])c1cccc(-c2nc(N3CCCCCC3)c3ccccc3n2)c1	1030
CCOc1ccc(CNc2nc3ccncc3n(CC)c2=O)cc1OC	618

// lookup RP-LC retention time for CNc1cccnc1OC1CCN(S(=O)(=O)c2ccc3c(c2)CCC3)C1 (stereo not given)
765

###

Assay: gradient 5% acetonitrile 3 min, to 50% in 2 min, to 85% in 15 min, held 3 min, 100 µL/min
Conditions: column: Zorbax Extend-C18 2.1 x 50 mm; eluents: water / acetonitrile, 0.1% formic acid
measured_property: RP-LC retention time (s)
Numbers only, in s.

Answered examples (3):
compound	RP-LC retention time / s
Cc1ccc(C)c(CNC(=O)Cn2c(=O)c3nnc(C)n3c3ncccc32)c1	712
Cc1ccc(S(=O)(=O)N2CCCCC2)cc1-c1nnc(-c2ccc(F)cc2)o1	1110
O=S(=O)(c1ccc(F)cc1F)N1CCCC(Cn2c(C3CC3)nc3cccnc32)C1 (stereo not given)	766

Please go through the list and note RP-LC retention time for each compound.
1. Cc1cccc(Sc2nccnc2N2CCC(C(=O)NC3CC3)CC2)c1
2. COc1cccc(/C=C/c2nc(-c3ccc4oc(C)nc4c3)no2)c1
3. Cc1noc(-c2ccc(NC(=O)c3cn(C)nn3)cc2)n1
4. Cc1cccc(N2CCN([C@H]3CS(=O)(=O)C[C@@H]3S(=O)(=O)c3ccccc3)CC2)c1C
5. O=C(NCCc1ccco1)C1CCN(Cc2cc3ccccc3n2Cc2ccccc2)CC1

1: 886; 2: 1110; 3: 658; 4: 1060; 5: 762

Please go through the list and note RP-LC retention time for each compound.
1. CS(=O)(=O)N1CCCc2ccc(NC(=O)Nc3ccc(Cl)c(Cl)c3)cc21
2. O=C(Cn1nc(Cc2ccncc2)c2ccccc2c1=O)N1CCOCC1

971
787
